Data provenance is patent US20200262877A1.

Record form. Attribute: Activity of NR2B with peptide, expressed as a percentage of the reference compound. Fill in for each entry.
- Test target: NR2B (Homo sapiens, UniProt Q13224)
- Construct: host or cells: HEK293 or CHO
- Sequence (Q13224 27-1484, other chains not shown): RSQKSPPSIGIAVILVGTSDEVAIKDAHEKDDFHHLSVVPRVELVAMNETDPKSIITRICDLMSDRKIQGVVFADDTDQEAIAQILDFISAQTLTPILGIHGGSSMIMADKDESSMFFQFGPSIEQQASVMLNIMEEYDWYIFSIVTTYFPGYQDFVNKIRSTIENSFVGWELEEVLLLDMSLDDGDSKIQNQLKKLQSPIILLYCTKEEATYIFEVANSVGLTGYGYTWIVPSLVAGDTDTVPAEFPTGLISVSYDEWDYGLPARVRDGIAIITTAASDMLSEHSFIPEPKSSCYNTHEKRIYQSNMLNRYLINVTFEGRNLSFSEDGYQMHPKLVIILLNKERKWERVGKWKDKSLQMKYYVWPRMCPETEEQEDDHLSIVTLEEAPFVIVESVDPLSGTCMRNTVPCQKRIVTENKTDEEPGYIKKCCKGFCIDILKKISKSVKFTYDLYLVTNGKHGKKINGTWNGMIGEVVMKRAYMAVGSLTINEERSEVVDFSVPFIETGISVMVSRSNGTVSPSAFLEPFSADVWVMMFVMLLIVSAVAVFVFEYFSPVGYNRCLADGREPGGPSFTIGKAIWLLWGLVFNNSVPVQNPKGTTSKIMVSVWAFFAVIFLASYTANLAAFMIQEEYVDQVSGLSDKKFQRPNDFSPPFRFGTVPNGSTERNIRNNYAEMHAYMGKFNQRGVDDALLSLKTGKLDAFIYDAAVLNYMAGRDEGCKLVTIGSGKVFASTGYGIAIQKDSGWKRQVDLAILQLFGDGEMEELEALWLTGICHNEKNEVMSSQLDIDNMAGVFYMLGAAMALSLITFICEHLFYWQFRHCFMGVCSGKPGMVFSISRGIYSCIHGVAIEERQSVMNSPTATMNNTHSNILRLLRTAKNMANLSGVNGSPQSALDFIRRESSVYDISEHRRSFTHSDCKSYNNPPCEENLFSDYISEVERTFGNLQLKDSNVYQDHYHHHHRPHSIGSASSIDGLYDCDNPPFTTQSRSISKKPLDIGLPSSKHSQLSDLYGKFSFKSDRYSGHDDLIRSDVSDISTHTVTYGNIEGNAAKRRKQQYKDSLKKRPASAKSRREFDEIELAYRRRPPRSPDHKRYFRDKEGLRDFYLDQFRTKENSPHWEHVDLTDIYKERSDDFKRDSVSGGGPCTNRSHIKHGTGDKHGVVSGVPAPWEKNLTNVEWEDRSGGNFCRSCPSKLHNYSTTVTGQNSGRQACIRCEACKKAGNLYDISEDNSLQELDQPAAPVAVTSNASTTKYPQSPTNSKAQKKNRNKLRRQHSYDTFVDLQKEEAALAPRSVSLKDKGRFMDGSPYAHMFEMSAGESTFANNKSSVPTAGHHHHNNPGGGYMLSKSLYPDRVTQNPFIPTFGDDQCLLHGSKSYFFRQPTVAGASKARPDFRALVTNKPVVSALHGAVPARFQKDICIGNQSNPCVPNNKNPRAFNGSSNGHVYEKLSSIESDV
- Procedure summary: Ion channel panel (IonWorks Barracuda): NR2B
- Assay type: cell-based
- Recorded conditions: peptide at 0.2 μM; 100% = no change, <100% = inhibition
- Method: This example describes a method for assaying ion channel activity in cells. Peptides were screened in duplicate at final concentrations of 20 μM and 200 nM, as determined by amino acid analysis, and diluted into HEPES buffered physiological saline (HBPS). HEK293 or CHO cells from the American Type Culture Collection (ATCC) were transfected with the appropriate ion channel before use. […]
Form entry: value (%) — number only.

Problem: I would be grateful if you could share the reported Activity of NR2B with peptide, expressed as a percentage of the reference compound for 32 (GSQDKCKKVYENYPVSKCQLANQCNYDCKLDKHARSGECFYDEKRNLQCICDYCEY) [compound 32] .
Solution: 76

Problem: Same again, this time with 23 (GSCIGEGVPCDENDPRCCFGLVCLKPTLHGIWYKSYYCYKK) [compound 23]
Solution: 95

Problem: Okay, and 22 (GSSDYCSNDFCFFSCRRDRCARGDCENGKCVCKNCHLN) [compound 22] ?
Solution: 94

Problem: Moving on to 18 (GSNCAGYMRECKEKLCCSGYVCSSRWKWCVLPAPWRR) [compound 18]
Solution: 107

Problem: What do you have for 15 (GSAVCNLKRCQLSCRSLGLLGKCIGDKCECVKHG) [compound 15] ?
Solution: 103

Problem: Can you handle 25 (GSACLAEYQKCEGSTVPCCPGLSCSAGRFRKTKLCTK) [compound 25] next?
Solution: 99

Problem: Param item: 24 (GSSCAKPGEMCMRIKCCDGQCGCNRGTGRCFCK) [compound 24]
Solution: 102

Problem: Also 36 (GSAQEPVKGPVSTKPGSCPIILIRCAMLNPPNRCLKDTDCPGIKKCCEGSCGMACFVPQ) [compound 36] ?
Solution: 109

Problem: Ok, now 10 (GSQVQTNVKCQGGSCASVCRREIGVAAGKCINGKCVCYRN) [compound 10]
Solution: 82

Problem: Another substance: 9 (GSGCFGYKCDYYKGCCSGYVCSPTWKWCVRPGPGR) [compound 9]
Solution: 77

Problem: What would you report for 19 (GSQFTDVKCTGSKQCWPVCKQMFGKPNGKCMNGKCRCYS) [compound 19] ?
Solution: 117

Problem: Next entry: 21 (GSAEIIRCSGTRECYAPCQKLTGCLNAKCMNKACKCYGCV) [compound 21]
Solution: 113

Problem: Quick one: 38 (GSGIGDPVTCLKSGAICHPVFCPRRYKQIGTCGLPGTKCCKKP) [compound 38]
Solution: 83

Problem: Note, next up: 6 (GSVRIPVSCKHSGQCLKPCKDAGMRFGKCMNGKCDCTPK) [compound 6]
Solution: 92

Problem: Try the substance 3 (GSSEKDCIKHLQRCRENKDCCSKKCSRRGTNPEKRCR) [compound 3]
Solution: 93

Problem: Let us now turn to 27 (GSACQFWSCNSSCISRGYRQGYCWGIQYKYCQCQ) [compound 27]
Solution: 79

Problem: Repeat for the following substance: 12 (GSNFKVEGACSKPCRKYCIDKGARNGKCINGRCHCYY) [compound 12]
Solution: 122

Problem: Moving on to 39 (GSGVPTDVKCRGSPQCIQPCKDAGMRFGKCMNGKCHCTPK) [compound 39]
Solution: 102
